Where these numbers come from: the supplement of paper PMC8728848

# study target: Fuc(a1-2)[Gal(a1-3)]Gal(b1-4)GlcNAc(b1-3)GalNAc
# assay procedure: glycan array binding signal (z-score within array); higher = stronger binding
# setup conditions: glycan notation: IUPAC condensed, linker removed
Only a selection was taken, and the strongest signals are over-represented in it overall.
readout label: glycan array binding signal (z-score)

Some entries whose results are on file:
binder	result
DCIR1 (Mus musculus), Q9QZ15 (protein) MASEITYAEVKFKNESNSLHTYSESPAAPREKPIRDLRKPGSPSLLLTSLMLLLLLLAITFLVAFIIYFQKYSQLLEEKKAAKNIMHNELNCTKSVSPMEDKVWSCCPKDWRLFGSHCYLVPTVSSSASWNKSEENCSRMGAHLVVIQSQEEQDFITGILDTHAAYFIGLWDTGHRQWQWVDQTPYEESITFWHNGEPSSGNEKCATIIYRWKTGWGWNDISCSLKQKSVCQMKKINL	-0.604
EEA (Euonymus europaeus) (protein) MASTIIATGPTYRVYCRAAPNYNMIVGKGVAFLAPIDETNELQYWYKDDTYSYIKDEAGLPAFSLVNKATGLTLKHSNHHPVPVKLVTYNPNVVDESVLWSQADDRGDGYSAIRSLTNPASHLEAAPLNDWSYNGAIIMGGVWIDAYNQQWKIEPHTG	4.01

In the following, a different binder is considered.
Input line: Given the entry Gal 10 (Homo sapiens), Q05315 (protein) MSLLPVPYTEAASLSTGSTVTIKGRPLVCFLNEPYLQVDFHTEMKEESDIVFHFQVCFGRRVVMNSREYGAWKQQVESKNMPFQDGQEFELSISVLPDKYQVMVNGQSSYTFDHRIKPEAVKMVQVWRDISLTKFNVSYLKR , report its measured glycan array binding signal (z-score).
Output line: -0.339
